# Test system: SK-OV-3 ovarian
# Experiment notes: NCI-60 one-dose screen, 48 h
# Condition description: 10 µM unless noted
The panel holds about 83,000 compounds, 20% with a hit somewhere; the sample as a whole holds those more often. Calls of active or inactive are those of the source. Rule for the calls: active = growth percent below 10; inactive = the rest.
Classes used: 1 = active, 0 = inactive

- Smiles notation: "CNc1ccccc1C(=O)N/N=C/C=C/c1ccccc1"
  Assayed target: "SK-OV-3 ovarian"
  Label value: 1
- Smiles notation: "Cc1ccc(NCN2C(=O)c3ccccc3C2=O)c(C)n1"
  Assayed target: "SK-OV-3 ovarian"
  Label value: 0
- Smiles notation: "Cc1ccc(S(N)(=O)=O)cc1Cl"
  Assayed target: "SK-OV-3 ovarian"
  Label value: 0
- Smiles notation: "O=C(Nc1cccc(Cl)c1)c1ccc(Cl)cc1Cl"
  Assayed target: "SK-OV-3 ovarian"
  Label value: 0

Data origin, for the record: PubChem BioAssay (NCI)
